# Test system: T1, Human CD93 on the cell surface (human CD93 expressing CHO cells; HUVEC, U937 and KG1a cells) (human, UniProt Q9NPY3 22-652)
# T1 construct: whole, on cells; also called hCD93 CHO cells; CHO-hCD93
# T1 sequence (looked up): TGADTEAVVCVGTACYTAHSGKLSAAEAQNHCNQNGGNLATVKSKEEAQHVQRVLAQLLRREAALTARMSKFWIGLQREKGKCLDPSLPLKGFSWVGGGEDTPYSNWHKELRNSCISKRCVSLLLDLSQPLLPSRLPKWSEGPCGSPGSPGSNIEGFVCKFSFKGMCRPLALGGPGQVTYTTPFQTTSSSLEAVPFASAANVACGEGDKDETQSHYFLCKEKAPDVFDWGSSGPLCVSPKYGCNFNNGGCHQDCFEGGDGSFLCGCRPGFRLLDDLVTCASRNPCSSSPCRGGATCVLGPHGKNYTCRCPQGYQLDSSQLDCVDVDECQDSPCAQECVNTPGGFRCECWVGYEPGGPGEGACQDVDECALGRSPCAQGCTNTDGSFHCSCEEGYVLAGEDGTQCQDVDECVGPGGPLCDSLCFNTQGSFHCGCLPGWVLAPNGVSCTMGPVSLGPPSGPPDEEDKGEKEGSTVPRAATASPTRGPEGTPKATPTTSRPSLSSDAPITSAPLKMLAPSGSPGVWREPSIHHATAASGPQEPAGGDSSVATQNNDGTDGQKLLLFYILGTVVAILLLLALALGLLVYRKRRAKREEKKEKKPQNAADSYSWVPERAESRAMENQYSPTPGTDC
# Protocol notes: FACS, CHO cells overexpressing human CD93
Experimental readout: binding result

INSERT INTO assay_data (binder, experimental_readout, value_reported) VALUES
  ('Humanized 17B10 H3L1 (antibody, mouse IgG1, V domains shown) VH: QVQLVQSGPEVKKPGESLKISCKASGYAFSSYWLNWVRQMPGKGLEWMGRIYPGDGDTDYNGKFKGQVTISADKSSGTAYLQLSSLKASDTAVYFCVRGDGYWAMDYWGQGTLVTVSS VL: DIVMTQSPLSLPVTPGEPASISCRFSQSLLHSNGITYLYWYLQKPGQSPQLLIYQMSNLASGVPDRFSGSGSGTDFTLKISRVEAEDVGVYYCAQNLELPWTFGGGTKLEIK', 'binding result', 'binds'),
  ('Humanized 17B10 (VH3VL3, i.e., H3L3) (antibody, mouse IgG1, V domains shown, also called h17B10-H3L3; humanized 17B10-mFc) VH: QVQLVQSGPEVKKPGESLKISCKASGYAFSSYWLNWVRQMPGKGLEWMGRIYPGDGDTDYNGKFKGQVTISADKSSGTAYLQLSSLKASDTAVYFCVRGDGYWAMDYWGQGTLVTVSS VL: DIVMTQSPDSLAVSLGERATINCRFSKSLLHSNGITYLYWYQQKPGQPPKLLIYQMSNLASGVPDRFSGSGSGTDFTLTISSLQAEDVAVYYCAQNLELPWTFGGGTKLEIK', 'binding result', 'binds'),
  ('Humanized 17B10 H3L2 (antibody, mouse IgG1, V domains shown) VH: QVQLVQSGPEVKKPGESLKISCKASGYAFSSYWLNWVRQMPGKGLEWMGRIYPGDGDTDYNGKFKGQVTISADKSSGTAYLQLSSLKASDTAVYFCVRGDGYWAMDYWGQGTLVTVSS VL: DIVMTQTPLSLPVTPGEPASISCRFSQSLLHSNGITYLYWYLQKPGQSPQLLIYTMSNLASGVPDRFSGSGSGTDFTLKISRVEAEDVGVYYCAQNLELPWTFGGGTKLEIK', 'binding result', 'binds');
